Hi there, I'd appreciate the recorded Kd for every entry that follows.
Biological target: T1, human TIGIT (UniProt Q495A1 22-244)
T1 chain: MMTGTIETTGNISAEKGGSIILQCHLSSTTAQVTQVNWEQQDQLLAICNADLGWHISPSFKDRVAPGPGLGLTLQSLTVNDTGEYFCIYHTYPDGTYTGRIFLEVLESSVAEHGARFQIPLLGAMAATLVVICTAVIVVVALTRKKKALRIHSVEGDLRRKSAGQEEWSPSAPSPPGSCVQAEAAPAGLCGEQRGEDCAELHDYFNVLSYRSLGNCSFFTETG
Assay: Biacore SPR
Write the numeric value and append its unit.

66H9.009 (antibody, V domains shown) VH: QVQLQESGPGLVKPSETLSLTCTVSGGSISSVYFYWNWIRQPPGKGLEWIGYIYYSGGTYYNPSLRSRVTISVDTSKNQFSLKLNSVTAADTAVYYCARGSIAAGGGYFYYNDMDVWGQGTTVTVSS VL: EIVLTQSPDFQSVTPKEKVAITCRASQSIGSSLHWYQQKPDQSPKPLIKYVSQSFSGVPSRFSGSGSGTDFTLTINSLEAEDAATYYCHQSSSLPLTFGGGTKVEIKR :: 0.0523 nM

Hi! Can you tell me Kd for each of these binders?
1. 58A7.003.008 (antibody, V domains shown) VH: QVQLQESGPGLVKPSETLSLTCTVSGGSISSGGYYWNWIRQPPGKGLEWIGYIYYSGSTFYNPSLKSRVTISVDTSKNQFSLKLSSVTAADTAVYYCARAPRYNWNYGWFDPWGQGTLVTVSS VL: EIVLTQSPGTLSLSPGERATLSCRASQQVSSTYLAWYQQKPGQAPRLLFYGASSRATGIPDRFSRSGSGTDFTLTISRLEPEDFAVYYCQQYDVSPWTFGQGTKVEIKR
2. 43B7.002.015 (antibody, V domains shown) VH: QVQLQESGPGLVKPSETLSLTCTVSGGSISSGGYYWSWIRQHPGKGLEWIGYIYYRGGTYYNPSLRSRVTMSVDTSKNQFSLRLSSVTAADTAVYYCARTIFGVIILDNWGQGTPVTVSS VL: DIQMTQSPSSLSASVGDRVTITCRSSQSISSYLNWYQQKPGRAPKLLIYAASSLQSGVPSRFSGSGSGTDFTLTISSLQPEDFASYYCQQSYTTPPTFGGGTKVEIKR

Response:
0.283 nM
0.0519 nM

Prompt: Give Kd for the following binder: 55G7.041 (antibody, V domains shown) VH: EVQLVESGGGVVQPGGSLRLSCAASGFTFSSYGMHWVRQAPGKGLEWVALIWFDESNIYYADAVKGRFTISRDNAKNTLYLQMNSLRAEDTAVYFCARGYDLLTGYYNFDFWGQGTLVTVSS VL: QAGLTQPPSVSKGLRQTATLTCTGNANNVGNRGAAWLQQHQGHPPKLLSYRNNNRPSGISERLSASRSGNTASLTITGLQPEDEADYYCSAWDSSLSAWVFGGGTKLTVLG
Response: 0.228 nM
